Target: UniProt:P27338
Sequence (P27338 whole entry): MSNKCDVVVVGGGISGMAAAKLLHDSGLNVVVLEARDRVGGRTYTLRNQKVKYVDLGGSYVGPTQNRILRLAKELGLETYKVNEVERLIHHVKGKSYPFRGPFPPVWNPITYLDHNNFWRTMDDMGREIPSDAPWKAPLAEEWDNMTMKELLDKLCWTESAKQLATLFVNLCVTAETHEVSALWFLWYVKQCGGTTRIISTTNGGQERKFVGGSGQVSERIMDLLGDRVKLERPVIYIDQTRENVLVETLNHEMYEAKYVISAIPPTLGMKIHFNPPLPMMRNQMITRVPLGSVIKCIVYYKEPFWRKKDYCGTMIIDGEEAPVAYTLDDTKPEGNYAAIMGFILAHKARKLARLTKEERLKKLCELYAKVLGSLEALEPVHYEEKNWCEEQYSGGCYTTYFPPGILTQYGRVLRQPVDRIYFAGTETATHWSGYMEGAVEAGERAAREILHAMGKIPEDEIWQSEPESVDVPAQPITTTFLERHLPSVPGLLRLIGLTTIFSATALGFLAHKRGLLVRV
Assay: Inhibition of human recombinant MAOB expressed in baculovirus infected BTI-TN-5B1- 4 cells using p-tyramine as substrate assessed as decrease in H2O2 production at 10 uM by amplex red-based fluorescence assay
Metric: inhibition (INH)

Consider the reported inhibition (INH) for these compounds:
structure_notation=COc1ccc(NC(=O)c2cc(=O)c3cc(/C=C/C(=O)OCCN(C)C)ccc3o2)cc1 target=UniProt:P27338 observed="Not Active"
structure_notation=COc1ccc(NC(=O)c2cc(=O)c3cc(/C=C/C(=O)O)ccc3o2)cc1 target=UniProt:P27338 observed="Not Active"
structure_notation=CCN(CC)CCOC(=O)/C=C/c1ccc2oc(C(=O)Nc3ccc(C)cc3)cc(=O)c2c1 target=UniProt:P27338 observed="Not Active"
structure_notation=CCN(CC)CCOC(=O)/C=C/c1ccc2oc(C(=O)Nc3ccc(Cl)cc3)cc(=O)c2c1 target=UniProt:P27338 observed="Not Active"

Lab note: next compound to report on.
Measured on UniProt:P27338, O=C(O)/C=C/c1ccc2occ(C(=O)Nc3ccc(Cl)cc3)c(=O)c2c1 has a documented inhibition (INH) of Not Active

* * *

Target: Amine oxidase [flavin-containing] A (Homo sapiens, UniProt P21397)
Sequence (P21397 whole entry): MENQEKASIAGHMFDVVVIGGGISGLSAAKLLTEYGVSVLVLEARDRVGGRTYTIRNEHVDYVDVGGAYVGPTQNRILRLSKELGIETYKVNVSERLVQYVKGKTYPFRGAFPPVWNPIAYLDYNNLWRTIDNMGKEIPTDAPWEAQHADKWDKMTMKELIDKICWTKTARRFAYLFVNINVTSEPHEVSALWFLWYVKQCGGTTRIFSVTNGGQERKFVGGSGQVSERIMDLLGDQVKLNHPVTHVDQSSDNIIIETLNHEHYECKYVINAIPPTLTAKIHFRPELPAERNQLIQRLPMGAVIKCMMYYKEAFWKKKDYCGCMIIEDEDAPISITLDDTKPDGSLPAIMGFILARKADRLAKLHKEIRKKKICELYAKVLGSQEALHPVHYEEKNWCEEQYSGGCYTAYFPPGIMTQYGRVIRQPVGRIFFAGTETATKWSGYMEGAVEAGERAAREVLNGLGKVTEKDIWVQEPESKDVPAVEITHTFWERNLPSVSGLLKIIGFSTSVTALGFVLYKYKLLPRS
Assay: Reversible competitive inhibition of human recombinant microsomal MAOA expressed in baculovirus infected BTI-TN-5B1- 4 cells using p-tyramine as substrate assessed as decrease in H2O2 production by Dixon plot analysis
Metric: pKi
Conceptually, pKi converts a concentration in mol/L into minus its log10.

Sample Cc1ccc(NC(=O)c2cc(=O)c3cc(/C=C/C(=O)OCCN(C)C)ccc3o2)cc1 ; pKi observed: 7.24
